Biological target: Gal(b1-3)[Fuc(a1-4)]GlcNAc
Assay: glycan array binding signal (z-score within array); higher = stronger binding
Settings: glycan notation: IUPAC condensed, linker removed
The sample as a whole holds a higher share of the strongest signals than the screen did.

# BINDER, glycan array binding signal (z-score)
data = [
    ("ECA (Erythrina cristagalli), P83410 (protein) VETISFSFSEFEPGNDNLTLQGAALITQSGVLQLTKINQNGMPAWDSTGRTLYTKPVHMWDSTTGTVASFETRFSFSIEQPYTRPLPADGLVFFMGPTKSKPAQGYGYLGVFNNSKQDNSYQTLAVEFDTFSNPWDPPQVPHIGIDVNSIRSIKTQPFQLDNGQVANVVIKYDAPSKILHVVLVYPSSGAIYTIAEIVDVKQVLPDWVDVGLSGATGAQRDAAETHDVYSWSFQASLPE", -0.234),
    ("DrGRIFIN (Danio rerio), Q6DGJ1 (protein) MTLRFEASCPDGLCPGWSVILKGETPPEASKFEINFLCDRDDRVAFHFNPRFTESDIICNSYMANRWGQEERCNHFPLGVEEPFQIEIYSDNDHFHVYIDKAKVMQYKHRVEDLKTITKLQVVNDVKISSLEITKKLFY", -0.187),
    ("M6PR (Bos taurus), P11456 (protein) MMSPLHSSWRTGLLLLLLFSVAVRESWQTEEKTCDLVGEKGKESEKELALLKRLTPLFNKSFESTVGQSPDMYSYVFRVCREAGNHSSGAGLVQINKSNGKETVVGRFNETQIFNGSNWIMLIYKGGDEYDNHCGREQRRAVVMISCNRHTLADNFN", -0.132),
]

The origin of these recorded values is the supplement of paper PMC8728848.
